system: UACC-257; assay: NCI tumour cell line growth inhibition, 48 h
The source made the active and inactive calls. No stated cut-off is given here; in the data, active = GI50 up to about 1.1 µM and inactive = higher.
Listing of recorded GI50 by entry.

Record lookup: for UACC-257, what GI50 belongs to `NC(=O)N/N=C1/CCCC/C1=C\c1ccccc1` ?
> 100 µM (inactive)

Record lookup: for UACC-257, what GI50 belongs to `CC(=O)c1c2c(cc3c1CC1(Cc4cc5c(cc4C1)CCC5)C3)CCC2` ?
63.8 µM (inactive)

Record lookup: for UACC-257, what GI50 belongs to `CC(=O)Oc1cc2c(cc1OCC(F)(F)F)[C@H]1CC[C@]3(C)[C@@H](OC(C)=O)CC[C@H]3[C@@H]1CC2=O` ?
18.9 µM (inactive)

Record lookup: for UACC-257, what GI50 belongs to `CN(C)c1ccc2c(SCC(=O)OCC(=O)[C@@]3(O)CC[C@H]4[C@@H]5CCC6=CC(=O)C=C[C@]6(C)[C@H]5C(=O)C[C@@]43C)c3ccc(N(C)C)cc3nc2c1` ?
15.7 µM (inactive)

Record lookup: for UACC-257, what GI50 belongs to CC1=CC(C2/C(=N/O)C=C(C)CC2(C)C)C(O)C(C)(C)C1 (stereo not drawn) ?
15.5 µM (inactive)

Record lookup: for UACC-257, what GI50 belongs to O=C1NC(=O)C(Cc2ccccc2)(c2cccnc2)N1 (stereo not drawn) ?
> 100 µM (inactive)

Record lookup: for UACC-257, what GI50 belongs to CCN(CC)CCCC(C)Nc1c(Sc2cnc3cc(Cl)ccc3c2NC(C)CCCN(CC)CC)cnc2cc(Cl)ccc12 (stereo not drawn) ?
2.03 µM (inactive)

Record lookup: for UACC-257, what GI50 belongs to `O=c1[nH][nH]c(=O)n1/N=C/c1ccccc1` ?
> 100 µM (inactive)

Record lookup: for UACC-257, what GI50 belongs to `Cc1n[nH]c(=O)n1/N=C/c1ccc([N+](=O)[O-])cc1` ?
> 100 µM (inactive)

---

test system: A498; test: NCI tumour cell line growth inhibition, 48 h
Calls of active or inactive are those of the source. No stated cut-off is given here; in the data, active = GI50 up to about 1.1 µM and inactive = higher.
Give your call using only these classes: active, inactive

Record excerpt, results attached:
COc1ccc(/C=C2\N=C(SC)N(CN3CCOCC3)C2=O)cc1; inactive
O=S(O)CCCCCSSCCCCSSCCCCCS(=O)O; inactive

Fill in: this test's call for `O=c1cc(-c2ccc(O)c(O)c2)oc2cc(O[C@H]3O[C@H](CO)[C@@H](O)[C@H](O)[C@H]3O)cc(O)c12` is ___
inactive

Fill in: this test's call for `CN(C)CCNc1ccc2c(=O)n(CCN(C)C)c(=O)n3c4ccc(N)cc4c(=O)c1c23` is ___
active

Fill in: this test's call for Fc1ccccc1C1SCc2nc3ccccc3n21 (stereo not drawn) is ___
inactive

Fill in: this test's call for O=c1nc2n(cc1/C=C\Br)C1CC(O)C(CO2)O1 (stereo not drawn) is ___
inactive

Fill in: this test's call for CC(SC(=O)Nc1ccc(/N=N/c2ccccc2)cc1)C(=O)O (stereo not drawn) is ___
inactive

Fill in: this test's call for CC1(C)[C@@H]2CC[C@@]1(C)C1(S[S+]1[O-])C21Cc2ccccc2C1 (stereo partly drawn) is ___
inactive

Fill in: this test's call for CC1=C(C(=O)NC(C)(C)C)CC(C(=O)NC(C)(C)C)C(C)N1 (stereo not drawn) is ___
inactive

Fill in: this test's call for `O=c1cc2ccccc2nn1Cc1cccc(Cl)c1` is ___
inactive

Fill in: this test's call for COC(=O)CC1C(COC(C)=O)OC(n2cc(C)c(=O)[nH]c2=O)C1OC(C)=O (stereo not drawn) is ___
inactive

Fill in: this test's call for `O=[N+]([O-])c1ccc(-c2ccc(C3=Nn4c(nnc4-c4ccc(Cl)cc4)SC3)o2)cc1` is ___
inactive

Fill in: this test's call for `O=C1/C(=C/c2ccco2)N=C(c2ccccc2)N1c1cc2cc(Sc3ccccc3)ccc2[nH]1` is ___
inactive

Fill in: this test's call for `CN(C)c1ccc2c(SCC(=O)OCC(=O)[C@@]3(O)CC[C@H]4[C@@H]5CCC6=CC(=O)C=C[C@]6(C)[C@H]5C(=O)C[C@@]43C)c3ccc(N(C)C)cc3nc2c1` is ___
inactive

Fill in: this test's call for `Cn1c(=O)c2ccccc2c2ccccc21` is ___
inactive

Fill in: this test's call for `CCOC(=O)C#Cc1ccc([N+](=O)[O-])cc1` is ___
inactive

Fill in: this test's call for `CC1=NN(C(=O)c2ccc(Cl)cc2)C(=O)/C1=C/c1ccco1` is ___
inactive

Fill in: this test's call for `CCN(CC)c1ccc2cc(C(=O)Nc3ccc(C)cc3)c(=N)oc2c1` is ___
inactive

Fill in: this test's call for CN(C)C(CN)CC1=C(CC(CN)N(C)C)CCC1 (stereo not drawn) is ___
inactive

Fill in: this test's call for `CC(=O)Nc1ccc(-c2nc3ccccc3s2)cc1C` is ___
inactive

Fill in: this test's call for N=C(N)NCCCC(NC(=O)OCCCCCCn1ccc(N)nc1=O)C(=O)O (stereo not drawn) is ___
inactive

Fill in: this test's call for `Brc1c(C#CCC(c2ccccc2)(c2ccccc2)c2ccccc2)ccc(C#CCC(c2ccccc2)(c2ccccc2)c2ccccc2)c1Br` is ___
inactive

Fill in: this test's call for `Cc1ccccc1C(=N)c1ccccc1Cc1cccc2ccccc12` is ___
inactive

Fill in: this test's call for `C[N+](C)(C)CCC(=O)N1C/C(=C\c2ccccc2)C(=O)/C(=C/c2ccccc2)C1` is ___
inactive

Fill in: this test's call for O=c1[nH]c(=O)n(C2OC(CO)C(O)C2O)cc1Oc1ccccc1 (stereo not drawn) is ___
inactive

Fill in: this test's call for `CC1=C(C(=O)Nc2ccc(Cl)c(C(=O)OC(C)C)c2)SCCO1` is ___
inactive

Fill in: this test's call for `CCN(CC)C(=C(C(Cl)=C(Cl)Cl)[N+](=O)[O-])N(CC)CC` is ___
inactive

Fill in: this test's call for `Cc1oc2nc(N(C)C)n3c(C)nnc3c2c1C` is ___
inactive
